- EXPERIMENTAL_PROTOCOL: Human liver microsome (HLM) metabolic stability assay
- Format: in vitro ADME
- MEASUREMENT_CONDITIONS: human liver microsomes
- Method: The 5 time point, high-throughput human liver microsome (HLM) metabolic stability assay is designed to determine in vitro compound metabolism. Compounds are incubated with HLMs at a concentration of 1 uM, at 37° C., for a total of 60 min. The percent of compound remaining at 5, 15, 30, and 60 min is used to calculate the t1/2 (min), CLint (mL/min/kg), CLh (mL/min/kg), and % Qh. […] The plates are analyzed using LC/MS/MS with electron spray ionization (ESI) and the previously determined MRM transitions. […]
This section presents molecules with their documented Metabolic stability (Qh %), % hepatic blood flow values.

> print(dat)
                                   molecule   val
1  Cc1ccc(OCc2cc(C)c3c(c2)CCN(C2COC2)C3)c(-c2cccc(N3C[C@@H]4C[C@]4(C(=O)O)C3)n2)c1 [Compound 38]  <24%
2  CCO[C@@H]1CN(c2cccc(-c3cccc(Cl)c3OCc3cc4c(c(OC)c3)CN(C3CCOCC3)CC4)n2)CC[C@@H]1C(=O)O [Compound 260]   40%

# ---- query molecule ----
Which Metabolic stability (Qh %), % hepatic blood flow value belongs to CO[C@@H]1CN(c2cccc(-c3cccc(C)c3OCc3ccc4c(c3)CCN(C3CCOCC3)C4)n2)CC[C@@H]1C(=O)O [Compound 67] ? <24%
